# MFI listing for each entry below
# EXPERIMENTAL TARGET: T1, human CXCR4 (chemokine (C-X-C motif) receptor 4) (human, UniProt P61073 1-352)
# T1 construct: Endogenous on human tumour cell lines (Ramos, HPB-ALL, Raji, Jurkat, MM1.S, RPMI-8226, MOLP-8, MOLT-4) or transfected into CHO-K1 cells (DiscoveRx); also called CXCR4 receptor
# T1 sequence (P61073 whole entry): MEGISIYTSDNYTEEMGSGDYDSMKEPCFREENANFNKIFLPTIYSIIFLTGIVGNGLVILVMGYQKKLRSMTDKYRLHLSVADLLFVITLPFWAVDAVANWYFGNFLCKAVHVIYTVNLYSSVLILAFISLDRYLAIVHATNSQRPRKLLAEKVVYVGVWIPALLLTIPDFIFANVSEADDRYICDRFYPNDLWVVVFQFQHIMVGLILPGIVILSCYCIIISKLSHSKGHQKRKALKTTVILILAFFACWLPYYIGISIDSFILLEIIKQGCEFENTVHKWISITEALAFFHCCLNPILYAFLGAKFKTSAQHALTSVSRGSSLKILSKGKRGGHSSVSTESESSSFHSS
# METHOD NOTES: flow cytometry on HPB-ALL cells, Fab at 0.25 µg/ml

{"columns": ["BINDER", "MFI"],
 "data": [
  ["h3G10.A57 VH / h3G10.2.72 VL Fab (Fab, V domains shown, Tested as Fab) VH: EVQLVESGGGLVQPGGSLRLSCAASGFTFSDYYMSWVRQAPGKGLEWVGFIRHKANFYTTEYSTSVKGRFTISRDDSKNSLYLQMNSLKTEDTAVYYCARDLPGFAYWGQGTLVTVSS VL: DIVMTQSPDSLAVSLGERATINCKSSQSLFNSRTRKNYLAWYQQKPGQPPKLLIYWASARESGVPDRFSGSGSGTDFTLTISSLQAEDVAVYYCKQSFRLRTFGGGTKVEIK", 1220],
  ["h3G10.2.5 VH / h3G10.2.72 VL Fab (Fab, V domains shown, Tested as Fab) VH: EVQLVESGGGLVQPGGSLRLSCAASGFTFSDYYMSWVRQAPGKGLEWVGFIRHKANIYTTEYSTSVKGRFTISRDDSKNSLYLQMNSLKTEDTAVYYCARDLPGFAYWGQGTLVTVSS VL: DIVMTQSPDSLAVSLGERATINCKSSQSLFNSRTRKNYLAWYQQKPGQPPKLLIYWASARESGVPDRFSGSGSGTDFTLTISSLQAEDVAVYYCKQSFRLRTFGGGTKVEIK", 390],
  ["h3G10.B44 VH / h3G10.A58A VL Fab (Fab, V domains shown, Tested as Fab) VH: EVQLVESGGGLVQPGGSLRLSCAASGFTFSDYYMSWVRQAPGKGLEWVSFIRHKANFYTTEYSTSVKGRFTISRDNSKNTLYLQMNSLRAEDTAVYYCAKDLPGFAYWGQGTLVTVSS VL: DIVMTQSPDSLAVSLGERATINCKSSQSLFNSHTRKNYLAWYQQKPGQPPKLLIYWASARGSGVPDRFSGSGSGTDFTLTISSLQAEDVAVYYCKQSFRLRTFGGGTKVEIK", 5120],
  ["h3G10.A57 VH / h3G10.A58A VL Fab (Fab, V domains shown, Tested as Fab) VH: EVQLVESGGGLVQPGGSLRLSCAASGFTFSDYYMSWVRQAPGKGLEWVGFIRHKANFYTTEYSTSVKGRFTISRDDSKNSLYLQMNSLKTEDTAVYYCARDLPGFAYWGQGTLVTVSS VL: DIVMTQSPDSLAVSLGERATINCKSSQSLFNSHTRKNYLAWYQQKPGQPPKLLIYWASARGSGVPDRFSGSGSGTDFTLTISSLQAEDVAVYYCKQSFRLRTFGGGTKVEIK", 3610],
  ["h3G10.1.60 VH / h3G10.2.72 VL Fab (Fab, V domains shown, Tested as Fab) VH: EVQLVESGGGLVQPGGSLRLSCAASGFTFSDYYMSWVRQAPGKGLEWVGFIRHKANVYTTEYSTSVKGRFTISRDDSKNSLYLQMNSLKTEDTAVYYCARDLPGFAYWGQGTLVTVSS VL: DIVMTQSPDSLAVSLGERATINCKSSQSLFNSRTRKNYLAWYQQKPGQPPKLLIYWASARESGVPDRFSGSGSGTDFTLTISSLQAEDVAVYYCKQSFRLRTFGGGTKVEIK", 396]
]}

meta.source: patent US20150037328A1
